The reported numbers originate from patent US20170348330A1.

- experimental details: Eplerenone PK and concentrations reported in humans
- Format: in vivo, human
- condition details: human, plasma, po, 100 mg, therapeutic doses of oral Eplerenone (100 mg), human; read-out: Peak plasma concentrations (Cmax), equivalent
- Description: Clinical data: Eplerenone PK and concentrations reported in humans: Referring now to FIG. 5 and FIG. 6, Eplerenone Cmax concentrations achieved in normal subjects is illustrated, as well as subjects with varying degrees of renal impairment after single and multiple doses of Eplerenone given orally. The charts illustrate the feasibility of achieving anti-viral Cmax concentrations using Eplerenone in human and show Eplerenone plasma concentration vs. time curves. […]
parameter: Cmax

In plain terms, COC(=O)[C@@H]1CC2=CC(=O)CC[C@]2(C)[C@@]23O[C@@H]2C[C@@]2(C)[C@@H](CC[C@@]24CCC(=O)O4)[C@H]13 has a documented Cmax of ≤ 4.1 µM
